Molecular target: Alpha-2C adrenergic receptor (Homo sapiens) (UniProt P18825)
Sequence (P18825 whole entry, looked up): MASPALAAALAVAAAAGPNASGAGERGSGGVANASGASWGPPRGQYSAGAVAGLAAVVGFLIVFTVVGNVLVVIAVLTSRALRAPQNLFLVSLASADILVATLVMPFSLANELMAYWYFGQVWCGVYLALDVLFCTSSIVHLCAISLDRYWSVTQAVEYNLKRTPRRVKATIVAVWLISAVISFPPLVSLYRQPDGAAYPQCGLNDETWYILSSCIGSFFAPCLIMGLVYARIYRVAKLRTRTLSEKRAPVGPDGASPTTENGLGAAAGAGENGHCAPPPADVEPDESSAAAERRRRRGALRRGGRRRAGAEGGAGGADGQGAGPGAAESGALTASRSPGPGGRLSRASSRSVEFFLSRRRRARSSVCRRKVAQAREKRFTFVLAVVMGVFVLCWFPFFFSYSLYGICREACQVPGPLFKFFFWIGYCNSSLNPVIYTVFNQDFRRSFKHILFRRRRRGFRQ
Assay: modulators of alpha2C/GIRK thallium flux, primary screen, cell-based, HEK293 alpha2C/GIRK1/2 (AID 624);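 also: slope of fluorescence ratio to pre-addition baseline per second over 15 to 24 s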
Settings: thallium flux BTC fluorescence, at 10 µM, actives lie on both sides
endpoint_label: slope
The answer should be written as a number, with no unit following it.

COc1ccc(N(CC(=O)O)S(=O)(=O)c2ccc(OC)c(OC)c2)cc1 : 0.00634

Exercise: # lookup: slope of COC(=O)c1cc(S(=O)(=O)N2CCC(C)CC2)ccc1F
Solution: 0.00608

Exercise: Need slope of O=c1[nH]c(N2CCc3ccccc32)nc2c1CCCC2 , thanks.
Solution: 0.0041

---

# nuclei count listing for each entry below
Test: inhibitors of E-selectin induction by TNFa, primary screen, imaging, HUVEC, immunofluorescence, MLSMR starter and 10KST1 sets (AID 487);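 also: 100% = median nuclei count of all wells on the same plate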
Settings: HUVEC TNFalpha-induced E-selectin immunofluorescence imaging, at 2 µM; measured here: cell number, toxicity
// units = %; emit number, no label

CN(C#N)c1nc(N2CCOCC2)nc(N2CCOCC2)n1 : 105
C=CCN(C)CCCNC(=O)/C=N/O : 87
CC(C)(C)OC(=O)N1CCCC1C(=O)N1CCc2ccccc21 (centres undefined) : 104
COc1cccc(NC(=O)C2CCCN(S(=O)(=O)c3cccc4cccnc34)C2)c1 (centres undefined) : 106

Exercise: So what does the record say about nuclei count for CCOC(=O)CNC(=O)CSc1nc(N(C)C)nc(N2CCOCC2)n1 ?
Solution: 111

Exercise: Could you share which nuclei count value was measured for COc1nnnc2c1sc1nc(N3CCOCC3)c3c(c12)CC(C)(C)OC3 ?
Solution: 154

Exercise: // lookup nuclei count for CCCCc1nc2sc3c(c2c(=O)[nH]1)CCC3
Solution: 129

Exercise: Which measured nuclei count value corresponds to O=C(c1cc(N2CCCCC2)nc2ccccc12)N1CCOCC1 ?
Solution: 159

Exercise: I'd like to know its nuclei count. The compound in question is O=C(Nc1cnn(Cc2ccc(F)cc2)c1)c1cnccn1
Solution: 120

Exercise: Would you kindly share the measured nuclei count for CCN(CC)CCN1C(=O)Cn2c(C)c(C)c3cccc1c32 ?
Solution: 232

---

Experiment: inhibitors of mutant huntingtin aggregation, primary screen, imaging, exon1htt(103Q)mCFP cells, high-content imaging (AID 483);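 also: compound exposure lasted 3 days before fixation; percent of the per-plate median nuclei count of sample wells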
Settings: exon1htt(103Q)mCFP cell line, aggregate imaging, at 2 µM; measured here: cell count, toxicity
endpoint_label: nuclei count
State the value, then name its unit.

CCN(CC)c1ccc(NC(=O)CN2CCN(CC(=O)Nc3ccccc3F)CC2)cc1 : 104%

Exercise: Query: nuclei count; subject: O=C1CCc2cc(S(=O)(=O)N3CCC(C(=O)Nc4nccs4)CC3)ccc2N1
Solution: 105%

Exercise: Reported nuclei count, molecule O=[n+]1c2c(n([O-])c3cc(F)c(N4CCCC4)cc31)CCC2 : ____
Solution: 78.5%

Exercise: # lookup: nuclei count of CN1/C(=C\C(=O)C(F)F)C(C)(C)c2ccccc21
Solution: 104%

---

# reported fluorescence slope; entries follow
Molecular target: Voltage-gated potassium channel subunit beta-2 (Rattus norvegicus) (UniProt P62483)
Sequence (P62483 whole entry, looked up): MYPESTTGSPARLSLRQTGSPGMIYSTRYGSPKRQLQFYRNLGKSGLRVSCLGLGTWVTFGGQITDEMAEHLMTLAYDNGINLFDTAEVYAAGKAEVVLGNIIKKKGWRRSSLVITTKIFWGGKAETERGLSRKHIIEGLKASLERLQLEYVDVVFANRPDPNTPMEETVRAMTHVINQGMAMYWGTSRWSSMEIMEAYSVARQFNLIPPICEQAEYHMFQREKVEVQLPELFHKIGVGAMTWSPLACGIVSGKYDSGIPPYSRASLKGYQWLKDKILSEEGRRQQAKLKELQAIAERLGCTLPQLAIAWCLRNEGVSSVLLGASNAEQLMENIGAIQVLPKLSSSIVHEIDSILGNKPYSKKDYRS
Assay: KvBeta enzyme negative modulators, primary screen, biochemical, NADPH fluorescence (AID 622);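 also: slope of raw intensity against log time taken from 70 to 1610 s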
Details: recombinant KvBeta, 4-cyanobenzaldehyde reduction, at 10 µM, stronger effect = higher value
Reply briefly: the number, and no unit.

Recorded fluorescence slope, per entry:
Cc1cccc(C)c1OCC(=O)Nc1cccc(-c2nnc(-c3ccccc3)o2)c1 : -0.492
CNC(=O)c1nnn(Cc2ccccc2)c1NC(C)=O : -0.601
COC(=O)c1c(NC(=O)CSc2nnc(-c3cccnc3)n2Cc2ccco2)sc(C)c1C : -0.579
Cc1cccc(-c2cc3nc4c(c(N5CCOCC5)n3n2)CCCC4)c1 : -0.399
COc1ccc2c(c1)cc(C(=O)O)n2C : -0.393

Turning now to a further record.
Exercise: Given the entry COCCCNC(=O)c1ccccc1NS(=O)(=O)c1ccc(C)cc1 , report its measured fluorescence slope.
Solution: -0.423

---

Consider the following compounds and their measured fluorescence slope readings.
Target: Muscarinic acetylcholine receptor M4 (Homo sapiens) (UniProt P08173)
Sequence (P08173 whole entry, looked up): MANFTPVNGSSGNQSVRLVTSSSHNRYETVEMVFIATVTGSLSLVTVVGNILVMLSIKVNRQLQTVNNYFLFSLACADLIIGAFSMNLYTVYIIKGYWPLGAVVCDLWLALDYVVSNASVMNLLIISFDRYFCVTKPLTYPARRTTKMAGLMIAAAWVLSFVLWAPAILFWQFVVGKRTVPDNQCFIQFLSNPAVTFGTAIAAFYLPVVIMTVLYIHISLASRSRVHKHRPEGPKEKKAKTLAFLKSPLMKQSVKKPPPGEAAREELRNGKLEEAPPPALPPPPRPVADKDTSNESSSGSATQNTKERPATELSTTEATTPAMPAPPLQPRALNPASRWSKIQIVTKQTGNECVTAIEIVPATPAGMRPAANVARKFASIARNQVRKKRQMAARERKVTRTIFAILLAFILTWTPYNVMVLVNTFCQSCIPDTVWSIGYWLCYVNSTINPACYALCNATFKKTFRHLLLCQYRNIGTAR
Assay: compounds altering M4/GIRK thallium flux, either direction, primary screen, M4 allosteric agonist project, cell-based, HEK293 M4/GIRK, BTC-AM (AID 625);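 also: thallium influx through GIRK channels coupled to M4 in HEK293 cells with BTC-AM dye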
Settings: at 10 µM, actives lie on both sides
In your answer, state the number alone without any accompanying words.

Below: 8 compounds and their reported fluorescence slope.
COCCNc1ncnc2c1cnn2-c1ccc(Cl)cc1 : 0.00652
N#Cc1nc(COc2ccccc2Cl)oc1NCc1ccc(F)cc1 : 0.00509
Cn1c(=O)c2c(nc(Br)n2Cc2ccc3ccccc3c2)n(C)c1=O : 0.00605
CN(C)CCNC(=O)C12CC3(C)CC(C)(CC(C)(C3)C1)C2 : 0.00507
CCCSc1nnc2n(Cc3ccccc3)c(=O)c3c4c(sc3n12)CCC4 : 0.00548
Cc1cc(=O)n2[nH]c(N3C(=O)CCC3=O)nc2n1 : 0.00594
Cc1cccn2c(=O)c3cc(C(N)=S)c(=N)n(CCCOC(C)C)c3nc12 : 0.00286
CCCn1c(SCC#N)nc2c(c1=O)C1(CCCC1)Cc1ccccc1-2 : 0.00798

Exercise: For the compound shown here, CCOC(=O)C1=C(N)n2c(s/c(=C\c3cccnc3)c2=O)=C(C(=O)OC)C1c1cccnc1 (stereo not given) , give the reported fluorescence slope.
Solution: 0.00354

Exercise: Consider the compound N#Cc1nc(COc2ccc(Br)cc2)oc1N1CCN(Cc2ccccc2)CC1 and give its measured fluorescence slope.
Solution: 0.00951

Exercise: Recorded fluorescence slope of Cc1cc2c(C)nc(Cc3ccccc3)nc2o1 , please.
Solution: 0.00471

Exercise: # query: fluorescence slope of entry O=C(O)c1ccc(C2CCCCC2)cn1
Solution: 0.00555

Exercise: May I ask what fluorescence slope has been recorded for COc1ccccc1-c1nnc2n1N=C(c1ccc(O)c(O)c1)CS2 ?
Solution: 0.00474

Exercise: Recorded fluorescence slope of CN(C)C(=O)COn1c(SCC(=O)N(C)C)nc2ccccc2c1=O , please.
Solution: 0.00719

Exercise: I would be grateful if you could share the reported fluorescence slope for CCCNC1=C(C)C(=O)CC1 .
Solution: 0.00471

Exercise: Could you share which fluorescence slope value was measured for COc1cc(C)nc(Nc2nc(C)c(C(C)=O)s2)n1 ?
Solution: 0.00495

---

Experiment: inhibitors of poly I:C-induced TLR3 signaling, primary screen, cell-based, poly I:C stimulus, luciferase, 10K MLSCN set (AID 602277)
Conditions: HEK293-TLR3 RL24 IRF3 luciferase reporter, at 10 µM
Calls of active or inactive are those of the source.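 The calls were made as follows: active = inhibition of the reporter signal at or above 50%; inactive = inhibition below 50%.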
In this exercise, the only acceptable responses are active, inactive

CCOC(=O)CSc1nc2sc(C)c(C)c2c(=O)n1C : inactive
CCc1nnc(SCC(=O)NC2CCCCC2)nc1CC : inactive

Exercise: Per the records of this test, what outcome belongs to O=C(Nc1cccc2ccccc12)c1cnccn1 ?
Solution: active

Exercise: Could you check what this test reported for O=C(NCC(c1cccnc1)N1CCN(c2ccccc2)CC1)c1ccc2c(c1)OCO2 (stereo unspecified) ?
Solution: inactive

Exercise: Please share the test call associated with COc1ccc(C(=O)NCCc2nnc(SCc3nc4ccccc4c(=O)[nH]3)n2C)cc1 .
Solution: inactive

Exercise: // return assay outcome for COc1ccc(C(=O)N2CCCc3ccccc32)cc1
Solution: inactive

Exercise: Per the assay record, what outcome was assigned to CCCSc1nnc(N2C(=O)CC(c3ccsc3)C3=C2CCCC3=O)s1 (stereo unspecified) ?
Solution: inactive

Exercise: Just curious, what result did COc1nc(OC)nc(N2CCC(C(=O)NCc3cccs3)CC2)n1 get here?
Solution: inactive

---

Experiment: inhibitors of E-selectin induction by TNFa, primary screen, imaging, HUVEC, immunofluorescence, MLSMR starter and 10KST1 sets (AID 487);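 also: 100% = median nuclei count of all wells on the same plate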
Details: HUVEC TNFalpha-induced E-selectin immunofluorescence imaging, at 2 µM; measured here: cell number, toxicity
endpoint_label: nuclei count
Give the figure together with its unit, number first.

// solved cases for nuclei count follow
C=C(C)Cn1c(N2CC(C)CC(C)C2)nc2c1c(=O)[nH]c(=O)n2C (stereo unspecified) : 108%
O=C(NCc1ccccc1)/C(=N\O)c1ccccc1 : 157%
COc1ccc2[nH]c(=O)c(CN(C(=O)c3ccncc3)C(C)C)cc2c1 : 147%
COC(=O)Nc1nnc(CCc2ccccc2)s1 : 113%
CC1(C)NC(=O)N(CC(O)COc2cccc(F)c2)C1=O (stereo unspecified) : 105%
COc1ccc(S(=O)(=O)C(C#N)c2nc3ccccc3nc2N2CCCC(C)C2)cc1 (stereo unspecified) : 113%
Cc1c(C(=O)OCc2ccccc2)[nH]c2c1C(=O)CC(c1ccco1)C2 (stereo unspecified) : 107%
COc1cc2c(cc1OC)-c1nnc(-c3cccs3)n1C(C)(C)C2 : 114%

Exercise: Consider the compound shown here: CCOC(=O)CN1CC23C=CC(O2)C(C(=O)Nc2ccc(OCC)cc2)C3C1=O (stereo unspecified) What is its recorded nuclei count?
Solution: 106%

Exercise: Endpoint output: nuclei count of Cc1ccc2cc(CNC(C)(C)C)c(=O)[nH]c2c1 . Value?
Solution: 141%

Exercise: What value of measured nuclei count is listed for CCOC(=O)c1c(C)c(C(=O)NCCN2CCOCC2)c(C)n1C ?
Solution: 103%

Exercise: Please report the recorded nuclei count for Cc1csc(NC(=O)CSc2nnc(Cc3cccn3C)n2-c2ccc(F)cc2)n1 .
Solution: 105%

Exercise: # input compound: Nc1nc2n(n1)C(c1cccc(Br)c1)CC(c1ccc(F)cc1)N2 (stereo unspecified) ; wanted: its nuclei count
Solution: 102%

Exercise: I have this compound here, Cc1ccc(S(=O)(=O)Cc2ccc(C(=O)N3CCN(Cc4ccccc4)CC3)o2)cc1 , and I need its recorded nuclei count.
Solution: 118%
